- tested_target: rPAPD5 (Homo sapiens, UniProt Q8NDF8)
- Construct: made in house
- Sequence (Q8NDF8 68-698 isoform Q8NDF8-5 limits assumed): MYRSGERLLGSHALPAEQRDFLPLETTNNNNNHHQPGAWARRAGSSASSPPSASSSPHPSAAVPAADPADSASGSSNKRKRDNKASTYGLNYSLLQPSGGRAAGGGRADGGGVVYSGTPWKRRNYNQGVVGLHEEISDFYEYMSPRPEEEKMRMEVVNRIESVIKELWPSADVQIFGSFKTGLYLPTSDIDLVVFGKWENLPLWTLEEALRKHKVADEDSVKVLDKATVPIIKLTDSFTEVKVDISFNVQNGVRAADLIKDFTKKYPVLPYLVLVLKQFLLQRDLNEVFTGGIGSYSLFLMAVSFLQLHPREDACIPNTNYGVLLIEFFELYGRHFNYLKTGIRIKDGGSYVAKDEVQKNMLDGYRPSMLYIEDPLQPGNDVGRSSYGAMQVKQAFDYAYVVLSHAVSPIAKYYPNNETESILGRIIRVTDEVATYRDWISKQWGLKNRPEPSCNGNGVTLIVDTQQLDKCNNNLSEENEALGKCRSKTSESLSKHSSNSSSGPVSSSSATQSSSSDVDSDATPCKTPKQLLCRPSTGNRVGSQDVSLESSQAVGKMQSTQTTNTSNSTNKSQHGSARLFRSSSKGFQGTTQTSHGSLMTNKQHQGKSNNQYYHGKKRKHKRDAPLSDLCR
- test_protocol: differential scanning fluorimetry (DSF) binding and stabilization of rPAPD5
- setup_conditions: 100 μM test compound; shift vs DMSO control; read-out: ΔTm at 100 μM
measured_endpoint: ΔTm at 100 µM

{"compound": "O=C(O)c1cc(C(F)(F)F)ccc1Nc1c(S(=O)(=O)N2CCOCC2)cnc2ccc(Cl)cc12 [Compound 271A]", "reported": "1 to 5 °C"}
{"compound": "CC(=O)NS(=O)(=O)c1ccc2ncc(S(=O)(=O)N3CCOCC3)c(Nc3ccccc3C(=O)O)c2c1 [Compound 235A]", "reported": "1 to 5 °C"}
{"compound": "O=C(O)c1ccccc1Nc1c(NC2CCS(=O)(=O)CC2)cnc2ccc(Cl)cc12 [Compound 188A]", "reported": "> 5 °C"}
{"compound": "O=C(O)c1ccccc1Nc1c(S(=O)(=O)N2CCOCC2)cnc2ccc(-c3cnc4[nH]ncc4c3)cc12 [Compound 155A]", "reported": "1 to 5 °C"}
{"compound": "O=C(O)c1ccccc1Nc1c(NC2CCNCC2)cnc2ccc(Cl)cc12 [Compound 186A]", "reported": "1 to 5 °C"}
{"compound": "O=C(O)c1c(F)cccc1Nc1c(S(=O)(=O)N2CCOCC2)cnc2ccc(Cl)cc12 [Compound 125A]", "reported": "1 to 5 °C"}
{"compound": "O=C(O)c1ccccc1Nc1c(S(=O)(=O)N2CCOCC2)cnc2ccc(-c3cc[nH]n3)cc12 [Compound 137A]", "reported": "1 to 5 °C"}
{"compound": "O=C(O)c1cc(Cl)ccc1Nc1c(N2CCC(O)CC2)cnc2ccc(Cl)cc12 [Compound 399A]", "reported": "> 5 °C"}
{"compound": "COC(=O)c1ccccc1Nc1c(S(=O)(=O)N2CCOCC2)cnc2ccc(Cl)cc12 [Compound 124A]", "reported": "1 to 5 °C"}
{"compound": "O=C(O)c1ccccc1Nc1c(S(=O)(=O)N2CCOCC2)cnc2ccc(-c3cc4cc(Cl)ccc4s3)cc12 [Compound 146A-C1]", "reported": "< 0 °C"}
{"compound": "O=C(O)c1ccccc1Nc1c(S(=O)(=O)NC2CCOCC2)cnc2ccc(Cl)cc12 [Compound 216A]", "reported": "> 5 °C"}
{"compound": "O=C(O)c1c(Nc2c(S(=O)(=O)N3CCOCC3)cnc3ccc(Cl)cc23)cccc1C(O)(O)C(F)(F)F [Compound 127A-1]", "reported": "> 5 °C"}
{"compound": "CS(=O)(=O)Nc1ccc(-c2ccc3ncc(S(=O)(=O)N4CCOCC4)c(Nc4ccccc4C(=O)O)c3c2)cc1 [Compound 179A]", "reported": "1 to 5 °C"}
{"compound": "O=C(O)c1ccccc1Nc1c(S(=O)(=O)N2CCOCC2)cnc2ccc(-c3ccnc(N4CCNCC4)c3)cc12 [Compound 169A]", "reported": "< 1 °C"}
{"compound": "CC(=O)c1ccc(-c2ccc3ncc(S(=O)(=O)N4CCOCC4)c(Nc4ccccc4C(=O)O)c3c2)s1 [Compound 138A]", "reported": "> 5 °C"}

====

Below, each of the compounds is paired with its reported minimal effective concentration value.
- Test system: telomere length in DC patient iPSCs
- test_protocol: telomere length / telomere elongation in DC patient iPSCs
- Assay type: cell-based, human
- setup_conditions: Homo sapiens, iPSC; patient iPSCs; concentration class at which activity is seen; read-out: iPSC-based Telomere length
measured_endpoint: minimal effective concentration

{"compound": "O=C(O)c1cc(Cl)ccc1Nc1c(S(=O)(=O)N2CCSCC2)cnc2ccc(Cl)cc12 [Compound 349A]", "reported": "< 0.001 µM"}
{"compound": "COc1cc(Cl)cc2c(Nc3ccc(Cl)cc3C(=O)O)c(S(=O)(=O)N3CCSCC3)cnc12 [Compound 418A]", "reported": "< 0.001 µM"}
{"compound": "O=C(O)c1cc(Cl)ccc1Nc1c(CN2CCSCC2)cnc2ccc(Cl)cc12 [Compound 428A]", "reported": "< 0.001 µM"}
{"compound": "O=C1CCC(c2cnc3ccc(Cl)cc3c2Nc2ccc(Cl)cc2C(=O)O)CC1 [Compound 404A]", "reported": "< 0.001 µM"}

====

- tested_target: rPAPD5 (Homo sapiens)
- Construct: made in house
- test_protocol: differential scanning fluorimetry (DSF) binding and stabilization of rPAPD5
- setup_conditions: 100 μM test compound; shift vs DMSO control; read-out: ΔTm at 100 μM
measured_endpoint: ΔTm at 100 µM

{"compound": "O=C(O)c1ccccc1Nc1c(S(=O)(=O)N2CCOCC2)cnc2ccc(F)cc12 [Compound 233A]", "measured_endpoint": "ΔTm at 100 µM", "reported": "> 5 °C"}
{"compound": "O=C(O)c1ccccc1Nc1c(S(=O)(=O)N2CCC(F)(F)CC2)cnc2ccc(OC(F)(F)F)cc12 [Compound 132A]", "measured_endpoint": "ΔTm at 100 µM", "reported": "> 5 °C"}
{"compound": "O=C(O)c1ccccc1Nc1c(-c2ncco2)cnc2ccc(Cl)cc12 [Compound 129A]", "measured_endpoint": "ΔTm at 100 µM", "reported": "> 5 °C"}
{"compound": "O=C(O)c1cccc(C(F)(F)F)c1Nc1c(S(=O)(=O)N2CCOCC2)cnc2ccc(Cl)cc12 [Compound 285A]", "measured_endpoint": "ΔTm at 100 µM", "reported": "< 1 °C"}
{"compound": "O=C(O)c1ccccc1Nc1c(S(=O)(=O)N2CCOCC2)cnc2ccc(OC(F)F)cc12 [Compound 236A]", "measured_endpoint": "ΔTm at 100 µM", "reported": "> 5 °C"}
{"compound": "O=C(O)c1c(Br)cccc1Nc1c(S(=O)(=O)N2CCOCC2)cnc2ccc(Cl)cc12 [Compound 128A-BR]", "measured_endpoint": "ΔTm at 100 µM", "reported": "< 1 °C"}
{"compound": "O=C(O)c1cc(Cl)ccc1Nc1c(S(=O)(=O)N2CCSCC2)cnc2c(C(F)(F)F)cc(Cl)cc12 [Compound 419A]", "measured_endpoint": "ΔTm at 100 µM", "reported": "< 1 °C"}
{"compound": "Cc1ccc(Nc2c(C3=CCOCC3)cnc3ccc(Cl)cc23)c(C(=O)O)c1 [Compound 306A]", "measured_endpoint": "ΔTm at 100 µM", "reported": "> 5 °C"}
{"compound": "O=C(O)c1ccccc1Nc1c(S(=O)(=O)N2CCOCC2)cnc2ccc(N3CCOCC3)cc12 [Compound 248A]", "measured_endpoint": "ΔTm at 100 µM", "reported": "1 to 5 °C"}
{"compound": "O=C(O)c1ccccc1Nc1c(S(=O)(=O)N2CCS(=O)(=O)CC2)cnc2ccc(Cl)cc12 [Compound 220A]", "measured_endpoint": "ΔTm at 100 µM", "reported": "> 5 °C"}
{"compound": "CC(C)n1nc(C(F)(F)F)cc1-c1ccc2ncc(S(=O)(=O)N3CCOCC3)c(Nc3ccccc3C(=O)O)c2c1 [Compound 141A]", "measured_endpoint": "ΔTm at 100 µM", "reported": "< 1 °C"}
{"compound": "O=C(O)c1ccccc1Nc1c(S(=O)(=O)N2CCOCC2)cnc2ccc(-c3ccc(N4CCCC4)nc3)cc12 [Compound 157A]", "measured_endpoint": "ΔTm at 100 µM", "reported": "< 1 °C"}
{"compound": "O=C1CCN(c2cnc3ccc(Cl)cc3c2Nc2ccc(Cl)cc2C(=O)O)CC1 [Compound 395A]", "measured_endpoint": "ΔTm at 100 µM", "reported": "> 5 °C"}
{"compound": "O=C(O)c1ccccc1Nc1c(C2CCS(=O)(=O)CC2)cnc2ccc(Cl)cc12 [Compound 208A]", "measured_endpoint": "ΔTm at 100 µM", "reported": "> 5 °C"}
{"compound": "O=C(O)c1ccccc1Nc1c(S(=O)(=O)Nc2ccncc2)cnc2ccc(Cl)cc12 [Compound 221A]", "measured_endpoint": "ΔTm at 100 µM", "reported": "> 5 °C"}
{"compound": "O=C(O)c1ccccc1Nc1c(Nc2cncnc2)cnc2ccc(Cl)cc12 [Compound 191A]", "measured_endpoint": "ΔTm at 100 µM", "reported": "> 5 °C"}
{"compound": "O=C(O)c1ccccc1Nc1c(-c2ncco2)cnc2ccc(Br)cc12 [Compound 130A]", "measured_endpoint": "ΔTm at 100 µM", "reported": "> 5 °C"}
{"compound": "O=C(O)c1ccccc1Nc1c(S(=O)(=O)N2CCOCC2)cnc2ccc(-c3ccc(S(=O)(=O)N4CCOCC4)cc3)cc12 [Compound 172A]", "measured_endpoint": "ΔTm at 100 µM", "reported": "1 to 5 °C"}
{"compound": "O=C(O)c1ccccc1Nc1c(S(=O)(=O)N2CCOCC2)cnc2ccc(-c3ccc4c(c3)OCO4)cc12 [Compound 175A]", "measured_endpoint": "ΔTm at 100 µM", "reported": "> 5 °C"}
{"compound": "O=C(O)c1ccccc1Nc1c(S(=O)(=O)N2CCOCC2)cnc2ccc(-c3ccc(N4CCOCC4)nc3)cc12 [Compound 163A]", "measured_endpoint": "ΔTm at 100 µM", "reported": "1 to 5 °C"}
{"compound": "O=C(O)c1ccccc1Nc1c(S(=O)(=O)N2CCOCC2)cnc2ccc(Nc3ccc4[nH]cnc4c3)cc12 [Compound 247A]", "measured_endpoint": "ΔTm at 100 µM", "reported": "1 to 5 °C"}
{"compound": "O=C(O)c1cc(Cl)ccc1Nc1c(C2CCNC2)cnc2ccc(Cl)cc12 (stereo not shown) [Compound 357A]", "measured_endpoint": "ΔTm at 100 µM", "reported": "> 5 °C"}
{"compound": "O=C(O)c1ccccc1Nc1c(S(=O)(=O)N2CCOCC2)cnc2ccc(NC3CCNCC3)cc12 [Compound 239A]", "measured_endpoint": "ΔTm at 100 µM", "reported": "1 to 5 °C"}
{"compound": "O=C(O)c1ccccc1Nc1c(S(=O)(=O)N2CCOCC2)cnc2ccc(-c3cnn4cccnc34)cc12 [Compound 149A]", "measured_endpoint": "ΔTm at 100 µM", "reported": "1 to 5 °C"}
{"compound": "O=C(O)c1c(Nc2c(S(=O)(=O)N3CCOCC3)cnc3ccc(Cl)cc23)cccc1N1CCC1 [Compound 87A-Cl]", "measured_endpoint": "ΔTm at 100 µM", "reported": "1 to 5 °C"}
{"compound": "Cc1cccc(C(=O)O)c1Nc1c(S(=O)(=O)N2CCOCC2)cnc2ccc(Cl)cc12 [Compound 283A]", "measured_endpoint": "ΔTm at 100 µM", "reported": "> 5 °C"}
{"compound": "O=C(O)c1cccc(O)c1Nc1c(S(=O)(=O)N2CCOCC2)cnc2ccc(Cl)cc12 [Compound 279A]", "measured_endpoint": "ΔTm at 100 µM", "reported": "1 to 5 °C"}
{"compound": "COc1cccc(C(=O)O)c1Nc1c(S(=O)(=O)N2CCOCC2)cnc2ccc(Cl)cc12 [Compound 284A]", "measured_endpoint": "ΔTm at 100 µM", "reported": "1 to 5 °C"}
{"compound": "CN1CCC(NS(=O)(=O)c2cnc3ccc(Cl)cc3c2Nc2ccccc2C(=O)O)CC1 [Compound 219A]", "measured_endpoint": "ΔTm at 100 µM", "reported": "1 to 5 °C"}
{"compound": "O=C(O)c1ccccc1Nc1c(S(=O)(=O)N2CCOCC2)cnc2ccc(-c3ccnc4[nH]ccc34)cc12 [Compound 159A]", "measured_endpoint": "ΔTm at 100 µM", "reported": "> 5 °C"}
{"compound": "CN1CC=C(c2cnc3ccc(Cl)cc3c2Nc2ccccc2C(=O)O)CC1 [Compound 207A-INT]", "measured_endpoint": "ΔTm at 100 µM", "reported": "> 5 °C"}

Source of measurements: patent US20250026769A1
